Below: a set of entries, each annotated with reported Kp uu at 2 h.
method notes: LC-MS/MS bioanalysis of plasma and brain homogenate, mouse model of brain metastasis (MDA231-BrM2-831)
Type: in vivo, NCr nude mice
setup conditions: female, NCr nude (CrTac:NCr-Foxn1nu), mouse, brain, oral, all mice (BM and no-BM combined); read-out: Mean Kp, uu, brain

NC(=O)c1cccc2cn(-c3ccc([C@@H]4CCCNC4)cc3)nc12    0.026

Proceeding to the next compound to report its Kp uu at 2 h.
Q: Which Kp uu at 2 h is reported for this compound? `O=C(c1cc(Cc2n[nH]c(=O)c3ccccc23)ccc1F)N1CCN(C(=O)C2CC2)CC1`
Ans: 0.022

* * *

method notes: MALDI MSI of brain sections, mouse model of brain metastasis (MDA231-BrM2-831)
Assay type: in vivo, NCr nude mice
setup conditions: female, NCr nude (CrTac:NCr-Foxn1nu), mouse, whole brain (sections), oral, 35 mg/kg, Brain Metastases; Mouse 4; Fig. 2B; read-out: MALDI MSI Mean Conc., whole brain, individual mouse
measured metric: concentration at 2 h (ng/g)
Report the figure in ng/g without appending any unit label.

Q: Which concentration at 2 h is reported for this compound? `NC(=O)c1cccc2cn(-c3ccc([C@@H]4CCCNC4)cc3)nc12`
Ans: 340

* * *

method notes: MALDI MSI of brain sections, biodistribution in healthy nonhuman primates
setup conditions: male, rhesus monkey, brain blood vessel, oral, 6 mg/kg, Niraparib Mean Conc. in histological ROI, NHP-2; Blood Vessel; Fig. 1D
measured metric: concentration at 4 h (ng/g)
Report the figure in ng/g without appending any unit label.

Q: Which concentration at 4 h is reported for this molecule? NC(=O)c1cccc2cn(-c3ccc([C@@H]4CCCNC4)cc3)nc12 [Niraparib]
Ans: 1210

* * *

method notes: in vivo
setup conditions: male, rhesus monkey, Mean Kp, brain
measured metric: Kp
Please respond with just the number, no unit label.

O=C(c1cc(Cc2n[nH]c(=O)c3ccccc23)ccc1F)N1CCN(C(=O)C2CC2)CC1    0.041

Proceeding to the next compound to report its Kp.
Q: Which Kp is reported for this compound? `NC(=O)c1cccc2cn(-c3ccc([C@@H]4CCCNC4)cc3)nc12`
Ans: 3.18

* * *

method notes: in vitro
setup conditions: rhesus monkey, plasma, pH 7.4
measured metric: fraction unbound at 4 h, 1 µM

Q: Which fraction unbound at 4 h, 1 µM is reported for this molecule? O=C(c1cc(Cc2n[nH]c(=O)c3ccccc23)ccc1F)N1CCN(C(=O)C2CC2)CC1 [Olaparib]
Ans: 0.301

* * *

Below: a set of entries, each annotated with reported Kp at 2 h.
method notes: LC-MS/MS bioanalysis of plasma and brain homogenate, mouse model of brain metastasis (MDA231-BrM2-831)
Format: in vivo, NCr nude mice
setup conditions: female, NCr nude (CrTac:NCr-Foxn1nu), mouse, brain, oral, BM mice (niraparib n = 4, olaparib n = 3); read-out: Group mean (SD) Kp, brain
Please respond with just the number, no unit label.

NC(=O)c1cccc2cn(-c3ccc([C@@H]4CCCNC4)cc3)nc12    0.214

Proceeding to the next compound to report its Kp at 2 h.
Q: Which Kp at 2 h is reported for this compound? `O=C(c1cc(Cc2n[nH]c(=O)c3ccccc23)ccc1F)N1CCN(C(=O)C2CC2)CC1`
Ans: 0.102

* * *

Below: a set of entries, each annotated with reported Kp uu.
method notes: in vivo
setup conditions: male, rhesus monkey, Mean Kp, uu, brain
Please respond with just the number, no unit label.

O=C(c1cc(Cc2n[nH]c(=O)c3ccccc23)ccc1F)N1CCN(C(=O)C2CC2)CC1 [Olaparib]    0.026

Proceeding to the next molecule to report its Kp uu.
Q: Which Kp uu is reported for this molecule? NC(=O)c1cccc2cn(-c3ccc([C@@H]4CCCNC4)cc3)nc12 [Niraparib]
Ans: 0.313

* * *

method notes: in vivo
setup conditions: female, C57BL/6, mouse, contralateral normal brain/plasma, oral
measured metric: Kp at 2 h
Please respond with just the number, no unit label.

Q: Which Kp at 2 h is reported for this compound? `O=C(c1cc(Cc2n[nH]c(=O)c3ccccc23)ccc1F)N1CCN(C(=O)C2CC2)CC1`
Ans: 0.031

* * *

method notes: MALDI MSI of brain sections, mouse model of brain metastasis (MDA231-BrM2-831)
Type: in vivo, NCr nude mice
setup conditions: female, NCr nude (CrTac:NCr-Foxn1nu), mouse, whole brain (sections), oral, 35 mg/kg, No Brain Metastases; Mouse 8; Fig. 2B; read-out: MALDI MSI Mean Conc., whole brain, individual mouse
measured metric: concentration at 2 h (ng/g)
Report the figure in ng/g without appending any unit label.

Q: Which concentration at 2 h is reported for this compound? `NC(=O)c1cccc2cn(-c3ccc([C@@H]4CCCNC4)cc3)nc12`
Ans: 400

* * *

method notes: LC-MS/MS bioanalysis of plasma and brain homogenate, mouse model of brain metastasis (MDA231-BrM2-831)
Type: in vivo, NCr nude mice
setup conditions: female, NCr nude (CrTac:NCr-Foxn1nu), mouse, brain, oral, BM mice (niraparib n = 4, olaparib n = 3); read-out: Group mean (SD) Kp, uu, brain
measured metric: Kp uu at 2 h
Please respond with just the number, no unit label.

NC(=O)c1cccc2cn(-c3ccc([C@@H]4CCCNC4)cc3)nc12    0.03

Proceeding to the next compound to report its Kp uu at 2 h.
Q: Which Kp uu at 2 h is reported for this compound? `O=C(c1cc(Cc2n[nH]c(=O)c3ccccc23)ccc1F)N1CCN(C(=O)C2CC2)CC1`
Ans: 0.047

* * *

method notes: Protein binding by rapid equilibrium dialysis, rhesus macaque brain and plasma
setup conditions: rhesus monkey, plasma (undiluted), pH 7.4
measured metric: fraction unbound at 4 h, 1 µM

Q: Which fraction unbound at 4 h, 1 µM is reported for this molecule? `NC(=O)c1cccc2cn(-c3ccc([C@@H]4CCCNC4)cc3)nc12`
Ans: 0.366

* * *

method notes: LC-MS/MS bioanalysis of plasma and brain homogenate, mouse model of brain metastasis (MDA231-BrM2-831)
Assay type: in vivo, NCr nude mice
setup conditions: female, NCr nude (CrTac:NCr-Foxn1nu), mouse, plasma, oral, No BM mice (n = 3); oral once daily 5 days, niraparib 35 mg/kg or olaparib 50 mg/kg, 2 h after final dose; read-out: LC-MS/MS Terminal plasma, mean (SD)
measured metric: concentration at 2 h (ng/mL)
Report the figure in ng/mL without appending any unit label.

O=C(c1cc(Cc2n[nH]c(=O)c3ccccc23)ccc1F)N1CCN(C(=O)C2CC2)CC1    226

Proceeding to the next compound to report its concentration at 2 h.
Q: Which concentration at 2 h is reported for this compound? `NC(=O)c1cccc2cn(-c3ccc([C@@H]4CCCNC4)cc3)nc12`
Ans: 3850
